- Species on record: Homo sapiens
- protocol_summary: Selectivity ratio of IC50 for human eNOS to IC50 for human iNOS
// values below are reported Ratio IC50
Reply briefly: the number, and no unit.

{"molecule": "CCC(NC(C)=N)c1ccccc1 (racemic)", "result_number": 320}
{"molecule": "CC(=N)N[C@@H](C)c1ccccc1", "result_number": 666}
{"molecule": "CC(=N)NCc1cccc(CNCc2ccncc2)c1", "result_number": 57}
{"molecule": "CC(=N)NCc1cccc(CNS(=O)(=O)c2ccc(C)cc2)c1", "result_number": 600}
{"molecule": "CC(=N)NCc1ccccc1", "result_number": 1750}

Proceeding to the next molecule to report its Ratio IC50.
Asked: Given the molecule `CCOC(=O)N1CCC(NC(C)=N)CC1` , what is its reported Ratio IC50?
Given back: 360

====

- subject_of_test: UniProt P35228
- Sequence (P35228 whole entry): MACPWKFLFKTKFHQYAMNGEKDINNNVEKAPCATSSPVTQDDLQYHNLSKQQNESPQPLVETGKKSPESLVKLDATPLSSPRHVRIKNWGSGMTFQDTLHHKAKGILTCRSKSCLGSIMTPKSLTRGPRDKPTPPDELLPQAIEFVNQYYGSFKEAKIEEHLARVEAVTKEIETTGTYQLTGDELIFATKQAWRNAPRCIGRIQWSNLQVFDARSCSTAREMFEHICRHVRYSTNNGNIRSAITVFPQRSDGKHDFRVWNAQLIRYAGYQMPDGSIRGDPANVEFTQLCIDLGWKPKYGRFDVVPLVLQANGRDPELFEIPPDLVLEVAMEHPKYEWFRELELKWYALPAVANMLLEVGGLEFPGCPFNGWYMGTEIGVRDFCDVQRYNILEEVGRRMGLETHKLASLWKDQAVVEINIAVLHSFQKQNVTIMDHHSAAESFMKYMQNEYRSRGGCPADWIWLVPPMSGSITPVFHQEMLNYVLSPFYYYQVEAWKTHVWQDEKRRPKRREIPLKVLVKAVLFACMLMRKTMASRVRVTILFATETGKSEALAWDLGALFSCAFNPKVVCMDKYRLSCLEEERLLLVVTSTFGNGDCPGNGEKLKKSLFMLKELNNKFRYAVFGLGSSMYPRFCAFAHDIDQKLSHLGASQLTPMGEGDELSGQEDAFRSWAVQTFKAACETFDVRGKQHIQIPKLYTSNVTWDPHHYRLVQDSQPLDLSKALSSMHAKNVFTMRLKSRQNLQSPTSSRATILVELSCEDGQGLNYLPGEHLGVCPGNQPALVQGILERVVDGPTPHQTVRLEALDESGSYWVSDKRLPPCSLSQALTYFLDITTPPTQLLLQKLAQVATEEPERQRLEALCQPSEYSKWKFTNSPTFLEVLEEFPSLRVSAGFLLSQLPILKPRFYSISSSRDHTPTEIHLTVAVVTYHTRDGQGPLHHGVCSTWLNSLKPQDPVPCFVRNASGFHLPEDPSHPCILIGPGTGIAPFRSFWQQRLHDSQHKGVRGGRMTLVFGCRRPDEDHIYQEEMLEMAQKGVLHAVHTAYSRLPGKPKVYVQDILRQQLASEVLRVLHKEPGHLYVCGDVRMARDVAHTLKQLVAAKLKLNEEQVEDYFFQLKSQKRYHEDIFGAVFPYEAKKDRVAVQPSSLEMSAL
- protocol_summary: Inhibition of iNOS in LPS treated human THP1 cell homogenate assessed as conversion of L-[2,3-3H]arginine to L-[2,3-3H]citrulline pre-incubated 1 hr before LPS challenge by whole cell assay
result_type: IC50 (nM)
Field: numeric (nM). Do not append units.

Please review the entries below; each comes with its answer.
{"compound": "CCC(NC(C)=N)c1ccccc1 (racemic)", "subject_of_test": "UniProt P35228", "IC50 [nM]": 250}
{"compound": "CCOC(=O)N1CCC(NC(C)=N)CC1", "subject_of_test": "UniProt P35228", "IC50 [nM]": 250}
{"compound": "CC(=N)NCc1cccc(CNS(=O)(=O)c2ccc(C)cc2)c1", "subject_of_test": "UniProt P35228", "IC50 [nM]": 500}

Asked: Which measured IC50 belongs to `CC(=N)NCc1cccc(CNCc2ccncc2)c1` , tested on UniProt P35228?
Given back: 350

Asked: Which measured IC50 belongs to `CC(=N)NCc1ccccc1` , tested on UniProt P35228?
Given back: 200

Asked: Which measured IC50 belongs to `CC(=N)N[C@@H](C)c1ccccc1` , tested on UniProt P35228?
Given back: 450
